experimental-system: RSV prefusion F (preF, DS-Cav1) (Respiratory syncytial virus)
procedure-details: BLI, IgG on sensor, 100 nM antigen
Attribute: Kd
Write the value in nM as a bare number.

Enquiry: Quick one: Kd of ADI-41241 (antibody, V domains shown) VH: QVQLVQSGAEVKKPGASVQVSCKASGYTFTGDYMHWVRQAPGQGLEWMGRINPNSGGTNYAQKFQGRVTMTRDTSISTAYMELSRLRSDDTAVYYCARAAAEYSSSSPTSYYYMDVWGKGTTVTVSS VL: EIQMTQSPSSLSASVGDRVTITCRASQNIYSFLNWYQQKPGKAPKLLIYAASSLQSGVPSRFSGSGSATDFTLTISSLQPEDFATYYCQQSYSPPQITFGQGTKVDIK ?
Return: 3.84

Next:
Enquiry: Fill blank: measured Kd of the binder ADI-41252 (antibody, V domains shown) VH: EVQLVQSGAEVKKPGESLKISCMGSGYNFPNYWIGWVRQMSGKGLEWMGIIYPDDSDTTYSPSFQGQVIFSADKSISTAYLQWSSLKASDTAMYFCVRLDKTTQIDFWGQGTLVTVSS VL: EIVLTQSPSSLSASVGDRVTITCQASQDISNYLNWYQQKPGKAPKLLIYDVSNLETGVPSRFSGSGSGTDFTFTISSLQPEDIATYYCQQHDNLPLTFGQGTRLEIK is ____.
Return: 1.37

Enquiry: Now the binder ADI-41317 (antibody, V domains shown) VH: EVQLVESGGGLVQPGGSLRLSCEASRFKFSTFWMAWVRQAPGKGLEWVANIKQDGSETYYLDSVKGRFTISRDNAKNSLFLQMKSLRAEDTAVYYCAGLWWGDLENWFDPWGQGTLVTVSS VL: QSVLTQPPSVSGAPGQRVTISCTGSSSNLGTGFDVHWYRQLPGTAPQLLIYGSTNRPSGVPDRFSGSKYGTSASLAITGLQAEDEADYYCQSYDSNLRAYVFGTVTKVTVL
Return: 48.2
